All values here come from the supplement of paper PMC10899765.

# System: MCF10A
# EXPERIMENT: nucleolar rRNA biogenesis percent inhibition (5-EU; siNT 0%, siPOLR1A 100%); higher = stronger inhibition of nucleolar rRNA biogenesis
# ASSAY_SETUP: 20 nM; 72 h
Where nucleolar rRNA biogenesis percent inhibition equals or exceeds 60%, the correct label is met; where it does not, the label is not met.

{"columns": ["ITEM_SEQUENCE", "QUALITATIVE_LABEL"],
 "data": [
  ["UCUGCAGGGUUUGCUUUGAG [hsa-miR-1205]", "not met"],
  ["UGUGUGGAUCCUGGAGGAGGCA [hsa-miR-3911]", "not met"],
  ["UGCCUGUCUACACUUGCUGUGC [hsa-miR-214-5p]", "not met"],
  ["GAGCAGGCGAGGCUGGGCUGAA [hsa-miR-4690-5p]", "met"],
  ["CAAAGGUAUUUGUGGUUUUUG [hsa-miR-548m]", "not met"]
]}

Then there is this sequence:
Determine whether measured nucleolar rRNA biogenesis percent inhibition meets or exceeds 60% for CUCUUGAGGGAAGCACUUUCUGU [hsa-miR-526b-5p]
met
